target: Protein phosphatase 1D (Homo sapiens) (UniProt O15297); test: RapidFire Mass Spectrometry qHTS Assay for Modulators of WT P53-Induced Phosphatase 1 (WIP1) (AID 1347424); conditions: WIP1 dephosphorylation of phosphopeptide, RapidFire MS; series mostly up to 63 µM;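 also: amount of dephosphorylated VEPPL-S-QETFS peptide product formed by WIP1; plate controls were DMSO wells for no effect and GSK830371 inhibitor control at 10 µM for full effect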
Sequence (O15297 whole entry, looked up): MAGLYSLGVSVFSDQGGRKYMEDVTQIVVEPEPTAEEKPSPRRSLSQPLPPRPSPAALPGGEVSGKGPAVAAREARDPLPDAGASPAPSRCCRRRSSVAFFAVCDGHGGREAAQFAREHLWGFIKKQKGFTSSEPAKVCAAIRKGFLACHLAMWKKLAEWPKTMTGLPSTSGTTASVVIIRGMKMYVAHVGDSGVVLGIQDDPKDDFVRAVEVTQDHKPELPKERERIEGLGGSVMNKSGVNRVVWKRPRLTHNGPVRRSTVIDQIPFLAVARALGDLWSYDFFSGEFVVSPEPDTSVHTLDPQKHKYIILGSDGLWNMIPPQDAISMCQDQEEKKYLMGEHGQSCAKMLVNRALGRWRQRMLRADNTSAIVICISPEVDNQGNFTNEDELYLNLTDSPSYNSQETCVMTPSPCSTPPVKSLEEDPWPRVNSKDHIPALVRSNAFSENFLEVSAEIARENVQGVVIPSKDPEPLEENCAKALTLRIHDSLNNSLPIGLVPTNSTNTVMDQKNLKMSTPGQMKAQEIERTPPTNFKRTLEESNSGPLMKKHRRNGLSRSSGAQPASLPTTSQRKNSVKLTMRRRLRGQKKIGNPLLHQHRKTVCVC
Inconclusive results are not listed. The source made the active and inactive calls. Calls follow the shape of the dose curve; as a rule, active = well fitted inhibition curve with a large enough effect; inconclusive = small, poorly fitted or top-dose-only effect; inactive = no such curve, though single readings can be large or run the other way.
metric_name: activity change, negative = inhibition

In [3]: df
Out[3]:
                                   compound                  value_measured
0             CC(C)(c1ccc(O)cc1)c1ccc(O)cc1                        inactive
1               CCCC(CCC)(C(=O)OCC)C(=O)OCC                        inactive
2  Cc1cccc(OCC(O)CNC(C)(C)C)c1C (centres undefined)                        inactive
3  CC1CN(c2cc3c(cc2F)c(=O)c(C(=O)O)cn3-c2ccc(F)cc2F)CCN1 (centres undefined)  -2.72% [at 6.17 µM] (inactive)

###

system: astro; test: Drug repurposing screens with cells derived from glioblastoma tumor samples (AID 1345199); conditions: viability, ATP luminescence, 48 h; series mostly up to 45.9 µM; also: % is scaled to controls: 0 for no effect and ±100 for the full control effect; nearly all actives have a fitted effect of over 40% in size
Inconclusive results are not listed. The source made the active and inactive calls. Calls come from the whole dose curve; as a rule, active = well fitted inhibition curve with a large enough effect; inconclusive = small, poorly fitted or top-dose-only effect; inactive = flat fitted curve, though single readings scatter.
metric_name: outcome

In [3]: df
Out[3]:
                                   compound  system_tested  metric_name  value_measured
0         CC(NN)c1ccccc1 (stereo not drawn)          astro      outcome        inactive
1  CCOC(=O)[C@H](CCc1ccccc1)N[C@@H](C)C(=O)N(CC(=O)O)C1Cc2ccccc2C1          astro      outcome        inactive
2        CCOc1ccc(NS(=O)(=O)c2ccc(N)cc2)nn1          astro      outcome        inactive

###

Parameter max response: see the listing below.
system: NIH3T3; assay: Cytotoxic Profiling of Annotated Libraries Using Quantitative High-Throughput Screening (AID 1296008); conditions: Five cell lines viability, CellTiter-Glo ATP luminescence, 48-72 h; active compounds read low; also: % is scaled to controls: 0 for no effect and ±100 for the full control effect; nearly all actives have a fitted effect of over 60% in size
Records with an inconclusive call do not appear. Where a SMILES comes first, the peptide text is derived from it.
metric_name: max response (%)

In [3]: df
Out[3]:
                                    compound   metric_name  value_measured
 0                             COCCOCC(OC)OC  max response             1.4
 1       CC(C)(C)c1nnc(NS(=O)(=O)c2ccccc2)s1  max response            1.08
 2  CC1c2ccccc2CN1NC(=O)c1ccc(Cl)c(S(N)(=O)=O)c1 (stereo not drawn)  max response            2.57
 3            CN1CCC(N(Cc2cccs2)c2ccccc2)CC1  max response           -5.48
 4  Cc1oc(-c2ccccc2)nc1CCC(=O)c1ccc(CC2SC(=O)NC2=O)cc1 (stereo not drawn)  max response          -0.446
 5                      Cc1c(N)cccc1C(F)(F)F  max response           -0.97
 6             CN(C)CCCOC1(Cc2ccccc2)CCCCCC1  max response           0.545
 7  c1ccc(C(O[C@H]2CCCN(CCc3ccc4c(c3)OCO4)C2)c2ccccc2)cc1  max response          -0.771
 8                O=C(CCCCCCCCC#CI)Oc1ccccc1  max response           0.745
 9  O=C1OC2(c3ccccc31)c1cc(I)c(O)c(I)c1Oc1c2cc(I)c(O)c1I  max response           -20.5
10                CN(C)C(=O)CNC(=O)Cc1ccccc1  max response           -5.07
11   CN(C(=O)C(Cl)Cl)c1ccc(OC(=O)c2ccco2)cc1  max response             1.4
12  CC(=O)N[C@@H](CO)C(=O)N[C@@H](CC(=O)O)C(=O)N[C@@H](CCCCN)C(=O)N1CCC[C@H]1C(=O)O (Ac-SDKP-OH)  max response          -0.894

Values from PubChem BioAssay (NCATS)
